# assayed-system: DnaK K106A (Escherichia coli, UniProt P0A6Y8, K106A)
# Sequence (P0A6Y8 whole entry K106A): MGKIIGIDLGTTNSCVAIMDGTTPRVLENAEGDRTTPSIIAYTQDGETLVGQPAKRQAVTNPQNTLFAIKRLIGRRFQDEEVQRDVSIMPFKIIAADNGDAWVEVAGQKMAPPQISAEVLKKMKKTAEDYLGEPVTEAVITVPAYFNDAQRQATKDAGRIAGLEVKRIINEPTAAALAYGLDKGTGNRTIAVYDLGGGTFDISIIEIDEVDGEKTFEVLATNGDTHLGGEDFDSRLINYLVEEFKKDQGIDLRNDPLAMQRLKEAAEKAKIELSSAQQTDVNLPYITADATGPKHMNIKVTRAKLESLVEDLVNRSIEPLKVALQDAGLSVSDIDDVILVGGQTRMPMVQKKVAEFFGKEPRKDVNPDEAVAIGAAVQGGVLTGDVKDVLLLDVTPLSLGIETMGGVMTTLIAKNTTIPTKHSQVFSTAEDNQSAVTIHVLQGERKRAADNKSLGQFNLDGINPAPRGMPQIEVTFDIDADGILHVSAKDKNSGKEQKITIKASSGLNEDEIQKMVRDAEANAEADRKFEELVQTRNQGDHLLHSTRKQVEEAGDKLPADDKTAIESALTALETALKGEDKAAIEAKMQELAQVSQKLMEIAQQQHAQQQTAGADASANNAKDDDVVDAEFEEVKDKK
# test-method-notes: Tryptophan fluorescence quench, DnaK K106A control mutant
assay-readout: pKd
Convention used: pKd is expressed as -log10 of the molar concentration.

Input line: Sample `O=c1c(O)c(-c2cc(O)c(O)c(O)c2)oc2cc(O)cc(O)c12` — what was its pKd?
Output line: 4.37

###

# assayed-system: DnaK-DnaJ complex (Escherichia coli, UniProt P0A6Y8)
# Sequence (P0A6Y8 whole entry, one chain of several): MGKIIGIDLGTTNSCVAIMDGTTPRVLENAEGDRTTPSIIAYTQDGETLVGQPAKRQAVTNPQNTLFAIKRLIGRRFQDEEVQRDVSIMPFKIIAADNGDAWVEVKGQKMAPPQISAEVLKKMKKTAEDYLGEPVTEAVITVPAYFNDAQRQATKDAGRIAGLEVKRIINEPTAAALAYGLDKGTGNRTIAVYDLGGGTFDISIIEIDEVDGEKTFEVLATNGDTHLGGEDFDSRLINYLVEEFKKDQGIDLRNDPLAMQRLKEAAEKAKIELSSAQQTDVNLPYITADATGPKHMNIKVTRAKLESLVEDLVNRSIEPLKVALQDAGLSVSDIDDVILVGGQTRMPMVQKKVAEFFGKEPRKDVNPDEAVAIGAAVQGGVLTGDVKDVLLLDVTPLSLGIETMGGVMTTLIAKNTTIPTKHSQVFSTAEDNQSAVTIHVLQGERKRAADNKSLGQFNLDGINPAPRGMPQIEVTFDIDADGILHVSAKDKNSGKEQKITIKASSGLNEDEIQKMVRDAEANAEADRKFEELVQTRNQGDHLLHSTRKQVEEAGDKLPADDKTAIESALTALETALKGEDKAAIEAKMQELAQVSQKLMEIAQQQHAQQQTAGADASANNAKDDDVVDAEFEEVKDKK
# test-method-notes: ATPase assay of the DnaK-DnaJ system
# Assay type: biochemical
assay-readout: IC50 (µM)
Record the value in µM, omitting the unit from your answer.

Take a look at these entries with their results.
Input line: Form field: IC50 recorded for O=C(O[C@@H]1Cc2c(O)cc(O)cc2O[C@@H]1c1ccc(O)c(O)c1)c1cc(O)c(O)c(O)c1 [ECG, epicatechin-3-gallate] with DnaK-DnaJ complex (Escherichia coli, UniProt P0A6Y8) (enter value)
Output line: 6

Input line: What do we get for `O=c1cc(-c2ccc(O)c(O)c2)oc2cc(O)cc(O)c12` ?
Output line: 9.4

More entries:
Input line: Give IC50 (DnaK-DnaJ complex (Escherichia coli, UniProt P0A6Y8)) of the following compound: `O=c1c(O)c(-c2ccc(O)c(O)c2)oc2cc(O)cc(O)c12`
Output line: 27.6

Input line: // same read-out, input: `O=c1c(O)c(-c2cc(O)c(O)c(O)c2)oc2cc(O)cc(O)c12`
Output line: 14.5
